Source of measurements: paper PMC11053489

test system: SARS-CoV-2 (hCoV-19/USA-WA1/2020) in Calu-3 cells; assay: microbe, parasite or virus in culture; format: cell-based; conditions: Severe acute respiratory syndrome coronavirus 2, Calu-3; MOI 0.01, 72 h, 2% FBS; read-out: Calu-3 SARS-CoV-2 EC90
Listing of entries alongside the reported EC90.
Reply with a number, then the unit it belongs to.

// worked examples, EC90 included
Molecule | EC90
CC(C)C(=O)OC[C@H]1O[C@@H](n2ccc(NO)nc2=O)[C@H](O)[C@@H]1O | 1.8 µM
CC(=O)Oc1ccccc1C(=O)Nc1ncc([N+](=O)[O-])s1 [Nitazoxanide] | 42.9 µM
CCC(CC)COC(=O)[C@H](C)N[P@](=O)(OC[C@H]1O[C@@](C#N)(c2ccc3c(N)ncnn23)[C@H](O)[C@@H]1O)Oc1ccccc1 | 0.7 µM
Cc1ccc(-c2cc(C(F)(F)F)nn2-c2ccc(S(N)(=O)=O)cc2)cc1 | 6.3 µM

Please look at the following molecule next.
## Input Retrieve EC90 on SARS-CoV-2 (hCoV-19/USA-WA1/2020) in Calu-3 cells; query `N#C[C@@]1(c2ccc3c(N)ncnn23)O[C@H](CO)[C@@H](O)[C@H]1O`
## Output 2.34 µM

* * *

assay: Peak plasma concentration; conditions: human, in vivo
Range-based classes on measured Cmax (μM) {unbound}: class 0: < 0.008 µM; class 1: ≥ 0.008 µM and < 0.1 µM; class 2: ≥ 0.1 µM

Please review the entries below; each comes with its answer.
Molecule | Label
NC12CC3CC(CC(C3)C1)C2 | class 0
CC(C)/N=c1\cc2n(-c3ccc(Cl)cc3)c3ccccc3nc-2cc1Nc1ccc(Cl)cc1 | class 0
C[C@H]1c2cccc(O)c2C(=O)C2=C(O)[C@]3(O)C(=O)C(C(N)=O)=C(O)[C@@H](N(C)C)[C@@H]3[C@@H](O)[C@@H]21 | class 2
CC(C)(O)c1ccccc1CC[C@@H](SCC1(CC(=O)O)CC1)c1cccc(/C=C/c2ccc3ccc(Cl)cc3n2)c1 [Montelukast sodium] | class 1
CN1CC[C@H](c2c(O)cc(O)c3c(=O)cc(-c4ccccc4Cl)oc23)[C@H](O)C1 | class 1

## Input Class (by measured Cmax (μM) {unbound}) for COCCCC/C(=N\OCCN)c1ccc(C(F)(F)F)cc1 [Fluvoxamine (maleate)]
## Output class 0

## Input Using the reported Cmax (μM) {unbound}, which band applies to `NC(N)=Nc1nc(CSCCC(N)=NS(N)(=O)=O)cs1` ?
## Output class 2

## Input Field: class (Cmax (μM) {unbound}) — entry: `Cc1cccc(Nc2ccccc2C(=O)O)c1C`
## Output class 2

## Input Band assignment needed for CC(C)OC(=O)C(C)(C)Oc1ccc(C(=O)c2ccc(Cl)cc2)cc1 [Fenofibrate] please.
## Output class 2

## Input For the record `Cc1ccc(-c2cc(C(F)(F)F)nn2-c2ccc(S(N)(=O)=O)cc2)cc1` , report the class its Cmax (μM) {unbound} corresponds to.
## Output class 1

## Input Classify this molecule: `COc1ccc2[nH]cc(CCNC(C)=O)c2c1`
## Output class 0

## Input Using the reported Cmax (μM) {unbound}, which band applies to O=C(O)Cc1ccccc1Nc1c(Cl)cccc1Cl [Diclofenac sodium] ?
## Output class 1

* * *

conditions: human, in vivo
Assay Metric: Cmax (μM) {unbound} (µM)
State just the number; it will be interpreted in µM.

Please review the entries below; each comes with its answer.
Compound | Recorded Number
N#C[C@@]1(c2ccc3c(N)ncnn23)O[C@H](CO)[C@@H](O)[C@H]1O | 2.41
COC[C@H]1C[C@@H](c2ncc(-c3ccc4c(c3)COc3cc5c(ccc6nc([C@@H]7CC[C@H](C)N7C(=O)[C@@H](NC(=O)OC)C(C)C)[nH]c65)cc3-4)[nH]2)N(C(=O)[C@H](NC(=O)OC)c2ccccc2)C1 | 0.001
CC(=O)Oc1ccccc1C(=O)Nc1ncc([N+](=O)[O-])s1 [Nitazoxanide] | 0.014

## Input Return the recorded Cmax (μM) {unbound} value; entry: `COC(=O)N[C@H](C(=O)N1CCC[C@H]1c1nc(-c2ccc3c(c2)O[C@@H](c2ccccc2)n2c-3cc3cc(-c4c[nH]c([C@@H]5CCCN5C(=O)[C@@H](NC(=O)OC)C(C)C)n4)ccc32)c[nH]1)C(C)C`
## Output 0.003

## Input Indicate its recorded Cmax (μM) {unbound}; the compound in question is `NC(=O)c1nc(F)c[nH]c1=O`
## Output 193

* * *

tested on: SARS-CoV-2 (hCoV-19/USA-WA1/2020) in Vero CCL-81 cells; assay: microbe, parasite or virus in culture; type: cell-based; details: Severe acute respiratory syndrome coronavirus 2; Table 3, drugs tested only in Vero CCL-81; MOI 0.1, 48 h; read-out: Vero CCL-81 Cells EC90
Listed below: EC90 values for each entry.
API: value field is a number in µM; no unit string.

Sample answers from the record:
Compound | Result Units | EC90
CC(C)/N=c1\cc2n(-c3ccc(Cl)cc3)c3ccccc3nc-2cc1Nc1ccc(Cl)cc1 | µM | 3
O=C(O)Cc1ccccc1Nc1c(Cl)cccc1Cl [Diclofenac sodium] | µM | 141
CC(C)C(=O)OCC(=O)[C@@]12O[C@H](C3CCCCC3)O[C@@H]1C[C@H]1[C@@H]3CCC4=CC(=O)C=C[C@]4(C)[C@H]3[C@@H](O)C[C@@]12C [Ciclesonide] | µM | 7.8

## Input Report measured EC90; entry is `C[C@H]1c2cccc(O)c2C(=O)C2=C(O)[C@]3(O)C(=O)C(C(N)=O)=C(O)[C@@H](N(C)C)[C@@H]3[C@@H](O)[C@@H]21`
## Output 102

* * *

Measured EC90, listed per entry for reference.
test system: SARS-CoV-2 (hCoV-19/USA-WA1/2020) in Vero CCL-81 cells; assay: microbe, parasite or virus in culture; assay type: cell-based; settings: Severe acute respiratory syndrome coronavirus 2; Table 3, drugs tested only in Vero CCL-81; MOI 0.1, 48 h; read-out: Vero CCL-81 Cells EC90
Structures can show the parent of a compound that is named as a salt.
State just the number; it will be interpreted in µM.

Compound | Recorded Number
COC[C@H]1C[C@@H](c2ncc(-c3ccc4c(c3)COc3cc5c(ccc6nc([C@@H]7CC[C@H](C)N7C(=O)[C@@H](NC(=O)OC)C(C)C)[nH]c65)cc3-4)[nH]2)N(C(=O)[C@H](NC(=O)OC)c2ccccc2)C1 | 79.6
CN(C)CCC(c1ccc(Cl)cc1)c1ccccn1 (stereo not drawn) [Chlorpheniramine maleate] | 104

Here is the next item to consider.
## Input Using SARS-CoV-2 (hCoV-19/USA-WA1/2020) in Vero CCL-81 cells as the test system, report measured EC90 of `CN1CC[C@H](c2c(O)cc(O)c3c(=O)cc(-c4ccccc4Cl)oc23)[C@H](O)C1` .
## Output 1.1

* * *

assay: MTS cytotoxicity assay, PBM cells; details: human
Reported CC50 at 5 days by item:
The reply should be a number in µM, with the unit left off.

Compound | Result Units | CC50 at 5 days
CC(C)OC(=O)C(C)(C)Oc1ccc(C(=O)c2ccc(Cl)cc2)cc1 [Fenofibrate] | µM | 38.9

--- query ---
## Input Look up and state reported CC50 at 5 days for COCCCC/C(=N\OCCN)c1ccc(C(F)(F)F)cc1 [Fluvoxamine (maleate)]
## Output 35.4

* * *

test system: SARS-CoV-2 (hCoV-19/USA-WA1/2020) in Caco-2 cells; conditions: Caco-2
Measured Caco-2 Unbound Cmax/EC50, listed per entry.
# respond with the number and nothing more

Example molecules with recorded Caco-2 Unbound Cmax/EC50:
Input Smiles | Assay Metric | Recorded Number
COC(=O)N[C@H](C(=O)N1CCC[C@H]1c1nc(-c2ccc(-c3ccc(-c4c[nH]c([C@@H]5CCCN5C(=O)[C@@H](NC(=O)OC)C(C)C)n4)cc3)cc2)c[nH]1)C(C)C | Caco-2 Unbound Cmax/EC50 | 0.0005
CC(C)C(=O)OC[C@H]1O[C@@](C#N)(c2ccc3c(N)ncnn23)[C@H](O)[C@@H]1O | Caco-2 Unbound Cmax/EC50 | 72
CC(C)(C)[C@H](NC(=O)C(F)(F)F)C(=O)N1C[C@H]2[C@@H]([C@H]1C(=O)N[C@H](C#N)C[C@@H]1CCNC1=O)C2(C)C | Caco-2 Unbound Cmax/EC50 | 6.8
NC(=O)c1nc(F)c[nH]c1=O | Caco-2 Unbound Cmax/EC50 | 0.74
CCC(CC)COC(=O)[C@H](C)N[P@](=O)(OC[C@H]1O[C@@](C#N)(c2ccc3c(N)ncnn23)[C@H](O)[C@@H]1O)Oc1ccccc1 | Caco-2 Unbound Cmax/EC50 | 22

We now examine a further molecule.
## Input Give reported Caco-2 Unbound Cmax/EC50 value for `N#C[C@@]1(c2ccc3c(N)ncnn23)O[C@H](CO)[C@@H](O)[C@H]1O`
## Output 30
